system: Butyrylcholinesterase (Rattus norvegicus)
Sequence (Q9JKC1 whole entry): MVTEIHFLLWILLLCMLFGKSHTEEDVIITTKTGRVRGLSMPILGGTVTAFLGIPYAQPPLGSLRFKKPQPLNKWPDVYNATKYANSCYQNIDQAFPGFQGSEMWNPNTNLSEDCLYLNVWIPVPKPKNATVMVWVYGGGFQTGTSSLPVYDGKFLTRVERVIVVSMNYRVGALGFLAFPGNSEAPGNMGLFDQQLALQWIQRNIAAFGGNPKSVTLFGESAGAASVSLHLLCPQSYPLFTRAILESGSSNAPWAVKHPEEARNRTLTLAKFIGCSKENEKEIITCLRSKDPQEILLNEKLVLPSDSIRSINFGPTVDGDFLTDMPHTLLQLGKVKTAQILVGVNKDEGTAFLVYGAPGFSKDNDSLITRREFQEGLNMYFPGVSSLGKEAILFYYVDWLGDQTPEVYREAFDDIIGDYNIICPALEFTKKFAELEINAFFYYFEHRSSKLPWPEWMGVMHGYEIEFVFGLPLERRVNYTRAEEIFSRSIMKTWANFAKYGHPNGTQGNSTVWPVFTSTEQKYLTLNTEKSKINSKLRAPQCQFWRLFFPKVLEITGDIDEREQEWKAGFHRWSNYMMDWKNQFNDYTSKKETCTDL
assay-overview: In vitro inhibitory concentration against butyrylcholinesterase was determined using rat serum homogenate
pIC50: −log10 of the molar value.

>  <compound>
COc1cc2c(cc1OC)C(=O)C(Oc1ccc(C(C)N3CCCCC3)cc1)C2 (centres undefined)

>  <pIC50>
3.75

$$$$
>  <compound>
COc1cc2c(cc1OC)C(=O)C(Oc1cccc(CN3CCCCC3)c1)C2 (centres undefined)

>  <pIC50>
4.26

$$$$
>  <compound>
CCN(CC)C(C)c1ccc(OC2Cc3cc(OC)c(OC)cc3C2=O)cc1 (centres undefined)

>  <pIC50>
3.63

$$$$
>  <compound>
COc1cc2c(cc1OC)C(=O)C(Oc1cccc(C(C)N3CCN(C)CC3)c1)C2 (centres undefined)

>  <pIC50>
3.60

$$$$
>  <compound>
COc1cc2c(cc1OC)C(=O)C(Oc1ccc(CN3CCOCC3)cc1)C2 (centres undefined)

>  <pIC50>
3.42

$$$$
>  <compound>
COc1cc2c(cc1OC)C(=O)C(Oc1cccc(C(C)N3CCCCC3)c1)C2 (centres undefined)

>  <pIC50>
3.80

$$$$
>  <compound>
COc1cc2c(cc1OC)C(=O)C(Oc1cccc(C(C)N3CCCC3)c1)C2 (centres undefined)

>  <pIC50>
3.67

$$$$
>  <compound>
COc1cc2c(cc1OC)C(=O)C(Oc1cccc(CN3CCCC3)c1)C2 (centres undefined)

>  <pIC50>
4.40

$$$$
>  <compound>
CCN(CC)Cc1cccc(OC2Cc3cc(OC)c(OC)cc3C2=O)c1 (centres undefined)

>  <pIC50>
3.72

$$$$
>  <compound>
COc1cc2c(cc1OC)C(=O)C(Oc1cccc(C(C)N3CCOCC3)c1)C2 (centres undefined)

>  <pIC50>
3.61

$$$$
>  <compound>
COc1cc2c(cc1OC)C(=O)C(Oc1ccc(C(C)N3CCCC3)cc1)C2 (centres undefined)

>  <pIC50>
3.89

$$$$
>  <compound>
COc1cc2c(cc1OC)C(=O)C(Oc1ccc(CN3CCCC3)cc1)C2 (centres undefined)

>  <pIC50>
4.07

$$$$
>  <compound>
COc1cc2c(cc1OC)C(=O)C(Oc1ccc(CN(C)C)cc1)C2 (centres undefined)

>  <pIC50>
2.70

$$$$
>  <compound>
COc1cc2c(cc1OC)C(=O)C(Oc1cccc(CN3CCN(C)CC3)c1)C2 (centres undefined)

>  <pIC50>
3.68

$$$$
